- Read-out: Phosphatase and tensin (PTEN), PTEN (gene 5728)
- protocol: LTEA_HepaRG_PTEN: Life Technologies and Expression Analysis (LTEA) Assay for Phosphatase and tensin (PTEN) using HepaRG (AID 2283523)
- cond: mRNA level, 48 h; actives raise or lower the signal
- Experimental: LTEA_HepaRG is a cell based, multiplexed-readout assay that uses HepaRG, a human liver cell line, with measurements taken at 48 hours after chemical dosing on a 96-well plate.LTEA_HepaRG_PTEN is one of 102 assay component(s) measured in the LTEA HepaRG cell culture assay. It is a marker of Cell proliferation, survival, death.Data from the assay component LTEA_HepaRG_PTEN was analyzed into 1 endpoint. […]
The source made the active and inactive calls. The calls were made as follows: active = hit-call score of the fitted dose curve at least 0.9, where 1 is the maximum; inactive = score below 0.9.
measured.attribute: outcome

CC(C)=CC1C(C(=O)OCN2C(=O)C3=C(CCCC3)C2=O)C1(C)C (stereo not drawn) | inactive
C#CC(C)(C)NC(=O)c1cc(Cl)cc(Cl)c1 | inactive
Nc1nc(N)nc(NC2CC2)n1 | inactive

Reference for the values: PubChem BioAssay (EPA / NIEHS)
